- Test system: paddy seeds
- PROCEDURE DETAILS: Possibility of growth of paddy seeds in tank farming without soil (Example 3)
- REPORTED CONDITIONS: in vivo
This listing pairs compounds with measured Possibility of growth, Amount of molybdenum or tungsten added to seed.

Field: example entries. Status: answers known.
>>> result("[O]=[W](=[O])([OH])[OH]")
"> 1 mmol/g"
>>> result("[O]=[Mo](=[O])([OH])[OH]")
"> 2 mmol/g"
>>> result("[O]=[Mo](=[O])=[O] [Molybdenum oxide, Molybdenum oxide (VI)]")
"0.07 mmol/g"

In: Give the measured Possibility of growth, Amount of molybdenum or tungsten added to seed of [O]=[W](=[O])=[O] [Tungsten oxide, Tungsten oxide (VI)] .
Out: > 1 mmol/g

###

- System: decay of paddy seeds
- PROCEDURE DETAILS: Decay-inhibiting effect in tank farming without soil (Example 3)
- REPORTED CONDITIONS: seeds covered with substance, soaked two weeks in water at 30° C.
- Method: The decay-inhibiting effect of molybdenum-containing substances in tank farming without soil was examined. The possibility of growth and the inhibition of decay were determined in the same manner as above.
MEASUREMENT LABEL: Inhibition of decay, Amount of molybdenum or tungsten added to seed

Field: example entries. Status: answers known.
>>> result("[Ca+2].[O]=[Mo](=[O])([O-])[O-] [Calcium molybdate]")
"0.3 mmol/g"
>>> result("[O]=[W](=[O])=[O] [Tungsten oxide, Tungsten oxide (VI)]")
"1< mmol g^−1"

In: Quick check: Inhibition of decay, Amount of molybdenum or tungsten added to seed on decay of paddy seeds, item [O]=[Mo](=[O])=[O] [Molybdenum oxide, Molybdenum oxide (VI)] ?
Out: <0.01 mmol/g

In: Quick check: Inhibition of decay, Amount of molybdenum or tungsten added to seed on decay of paddy seeds, item [O]=[W](=[O])([OH])[OH] ?
Out: 1< mmol g^−1

In: Quick check: Inhibition of decay, Amount of molybdenum or tungsten added to seed on decay of paddy seeds, item [O]=[Mo](=[O])([OH])[OH] ?
Out: <0.02 mmol/g

In: Quick check: Inhibition of decay, Amount of molybdenum or tungsten added to seed on decay of paddy seeds, item [H+].[H+].[NH4+].[NH4+].[NH4+].[NH4+].[NH4+].[NH4+].[NH4+].[NH4+].[NH4+].[NH4+].[O]=[W](=[O])([O-])[O-].[O]=[W](=[O])([O-])[O-].[O]=[W](=[O])([O-])[O-].[O]=[W](=[O])([O-])[O-].[O]=[W](=[O])([O-])[O-].[O]=[W](=[O])([O-])[O-].[O]=[W](=[O])=[O].[O]=[W](=[O])=[O].[O]=[W](=[O])=[O].[O]=[W](=[O])=[O].[O]=[W](=[O])=[O].[O]=[W](=[O])=[O] [Ammonium paratungstate, Ammonium tungstate parapentahydrate] ?
Out: <0.3 mmol/g
